details: 303.15 K; 101.33 kPa; Liquid; Concentric cylinders viscometry
property: viscosity (mPa·s)
Answers are plain numbers, in mPa·s.

{"columns": ["molecule", "viscosity, mPa·s"],
 "data": [
  ["CCCCCCCC[n+]1ccccc1.O=S(=O)([N-]S(=O)(=O)C(F)(F)F)C(F)(F)F [1-octylpyridinium bis((trifluoromethyl)sulfonyl)amide]", 88.74],
  ["CCCCCCCCCC[n+]1ccccc1.O=S(=O)([N-]S(=O)(=O)C(F)(F)F)C(F)(F)F [1-decylpyridinium bis(trifluoromethylsulfonyl)imide]", 116.39],
  ["CCCCCCCCCCCC[n+]1ccccc1.O=S(=O)([N-]S(=O)(=O)C(F)(F)F)C(F)(F)F [1-dodecylpyridinium bis(trifluoromethylsulfonyl)imide]", 151.42]
]}

Okay, next one:
-- ask Param item = CCCC[n+]1ccccc1.O=S(=O)([N-]S(=O)(=O)C(F)(F)F)C(F)(F)F [1-butylpyridinium bis[(trifluoromethyl)sulfonyl]imide] ; retrieve measured viscosity.
-- reply 48.55

---

conditions: 323.15 K; 101.33 kPa; Liquid; Vibrating tube method
I'd be grateful if you could share measured mass density for these entries.
One number for each entry, in kg/m3.

Would you please look over these solved cases?
{"columns": ["compound", "value-unit", "measured-number"],
 "data": [
  ["CCCCCCCCCC[n+]1ccccc1.O=S(=O)([N-]S(=O)(=O)C(F)(F)F)C(F)(F)F [1-decylpyridinium bis(trifluoromethylsulfonyl)imide]", "kg/m3", 1262.6],
  ["CCCCCCCCCCCC[n+]1ccccc1.O=S(=O)([N-]S(=O)(=O)C(F)(F)F)C(F)(F)F [1-dodecylpyridinium bis(trifluoromethylsulfonyl)imide]", "kg/m3", 1228.2]
]}

Go through the items and report each one's mass density.
1. CCCCCCCC[n+]1ccccc1.O=S(=O)([N-]S(=O)(=O)C(F)(F)F)C(F)(F)F [1-octylpyridinium bis((trifluoromethyl)sulfonyl)amide]
2. CCCC[n+]1ccccc1.O=S(=O)([N-]S(=O)(=O)C(F)(F)F)C(F)(F)F [1-butylpyridinium bis[(trifluoromethyl)sulfonyl]imide]

-- reply
1. 1305.3
2. 1424.3

---

I'd be grateful if you could share measured refractive index for these entries.
experiment: refractive index (Na D-line) (dimensionless); conditions: 298.15 K; 101.33 kPa; Liquid; Standard Abbe refractometry
Numbers only.

{"columns": ["compound", "property", "measured-number"],
 "data": [
  ["CCCCCCCC[n+]1ccccc1.O=S(=O)([N-]S(=O)(=O)C(F)(F)F)C(F)(F)F [1-octylpyridinium bis((trifluoromethyl)sulfonyl)amide]", "refractive index", 1.44723],
  ["CCCCCCCCCCCC[n+]1ccccc1.O=S(=O)([N-]S(=O)(=O)C(F)(F)F)C(F)(F)F [1-dodecylpyridinium bis(trifluoromethylsulfonyl)imide]", "refractive index", 1.44969],
  ["CCCCCCCCCC[n+]1ccccc1.O=S(=O)([N-]S(=O)(=O)C(F)(F)F)C(F)(F)F [1-decylpyridinium bis(trifluoromethylsulfonyl)imide]", "refractive index", 1.44859],
  ["CCCCCC[n+]1ccn(C)c1.O=S(=O)([N-]S(=O)(=O)C(F)(F)F)C(F)(F)F", "refractive index", 1.4318]
]}

Okay, next one:
-- ask Param item = CCCC[n+]1ccccc1.O=S(=O)([N-]S(=O)(=O)C(F)(F)F)C(F)(F)F [1-butylpyridinium bis[(trifluoromethyl)sulfonyl]imide] ; retrieve measured refractive index.
-- reply 1.44379

---

I'd be grateful if you could share measured refractive index for these entries.
assay: refractive index (Na D-line) (dimensionless); details: 303.15 K; 101.33 kPa; Liquid; Standard Abbe refractometry
Answers are plain numbers.

Would you please look over these solved cases?
{"columns": ["compound", "measured-number"],
 "data": [
  ["CCCCCCCC[n+]1ccccc1.O=S(=O)([N-]S(=O)(=O)C(F)(F)F)C(F)(F)F [1-octylpyridinium bis((trifluoromethyl)sulfonyl)amide]", 1.44568],
  ["CCCC[n+]1ccccc1.O=S(=O)([N-]S(=O)(=O)C(F)(F)F)C(F)(F)F [1-butylpyridinium bis[(trifluoromethyl)sulfonyl]imide]", 1.44211],
  ["CCCCCCCCCCCC[n+]1ccccc1.O=S(=O)([N-]S(=O)(=O)C(F)(F)F)C(F)(F)F [1-dodecylpyridinium bis(trifluoromethylsulfonyl)imide]", 1.44818]
]}

Okay, next one:
-- ask Param item = CCCCCCCCCC[n+]1ccccc1.O=S(=O)([N-]S(=O)(=O)C(F)(F)F)C(F)(F)F [1-decylpyridinium bis(trifluoromethylsulfonyl)imide] ; retrieve measured refractive index.
-- reply 1.44703

---

settings: 313.15 K; 101.33 kPa; Liquid; Vibrating tube method
± gives the expanded uncertainty stated by the source.
I'd be grateful if you could share measured mass density for these entries.
The number alone won't do; follow it with the unit.

Would you please look over these solved cases?
{"columns": ["compound", "mass density"],
 "data": [
  ["CCCCCCCC[n+]1ccccc1.O=S(=O)([N-]S(=O)(=O)C(F)(F)F)C(F)(F)F [1-octylpyridinium bis((trifluoromethyl)sulfonyl)amide]", "1313.9 ± 1.7 kg/m3"],
  ["CCCCCCCCCC[n+]1ccccc1.O=S(=O)([N-]S(=O)(=O)C(F)(F)F)C(F)(F)F [1-decylpyridinium bis(trifluoromethylsulfonyl)imide]", "1270.9 ± 1.7 kg/m3"],
  ["CCCCCCCCCCCC[n+]1ccccc1.O=S(=O)([N-]S(=O)(=O)C(F)(F)F)C(F)(F)F [1-dodecylpyridinium bis(trifluoromethylsulfonyl)imide]", "1236.4 ± 1.6 kg/m3"]
]}

Okay, next one:
-- ask Param item = CCCC[n+]1ccccc1.O=S(=O)([N-]S(=O)(=O)C(F)(F)F)C(F)(F)F [1-butylpyridinium bis[(trifluoromethyl)sulfonyl]imide] ; retrieve measured mass density.
-- reply 1433.6 ± 2 kg/m3

---

assay: refractive index (Na D-line) (dimensionless); settings: 313.15 K; 101.33 kPa; Liquid; Standard Abbe refractometry
property: refractive index
Numbers only.

Would you please look over these solved cases?
{"columns": ["compound", "property", "measured-number"],
 "data": [
  ["CCCCCCCCCC[n+]1ccccc1.O=S(=O)([N-]S(=O)(=O)C(F)(F)F)C(F)(F)F [1-decylpyridinium bis(trifluoromethylsulfonyl)imide]", "refractive index", 1.44391],
  ["CCCCCCCCCCCC[n+]1ccccc1.O=S(=O)([N-]S(=O)(=O)C(F)(F)F)C(F)(F)F [1-dodecylpyridinium bis(trifluoromethylsulfonyl)imide]", "refractive index", 1.44524],
  ["CCCC[n+]1ccccc1.O=S(=O)([N-]S(=O)(=O)C(F)(F)F)C(F)(F)F [1-butylpyridinium bis[(trifluoromethyl)sulfonyl]imide]", "refractive index", 1.43911]
]}

-- ask Param item = CCCCCCCC[n+]1ccccc1.O=S(=O)([N-]S(=O)(=O)C(F)(F)F)C(F)(F)F [1-octylpyridinium bis((trifluoromethyl)sulfonyl)amide] ; retrieve measured refractive index.
-- reply 1.44262

---

conditions: 343.15 K; 101.33 kPa; Liquid; Vibrating tube method
property: mass density (kg/m3)
One number for each entry, in kg/m3.

Would you please look over these solved cases?
{"columns": ["compound", "measured-number"],
 "data": [
  ["CCCCCCCC[n+]1ccccc1.O=S(=O)([N-]S(=O)(=O)C(F)(F)F)C(F)(F)F [1-octylpyridinium bis((trifluoromethyl)sulfonyl)amide]", 1288.3],
  ["CCCCCCCCCC[n+]1ccccc1.O=S(=O)([N-]S(=O)(=O)C(F)(F)F)C(F)(F)F [1-decylpyridinium bis(trifluoromethylsulfonyl)imide]", 1246.1],
  ["CCCCCCCCCCCC[n+]1ccccc1.O=S(=O)([N-]S(=O)(=O)C(F)(F)F)C(F)(F)F [1-dodecylpyridinium bis(trifluoromethylsulfonyl)imide]", 1212]
]}

Okay, next one:
-- ask Param item = CCCC[n+]1ccccc1.O=S(=O)([N-]S(=O)(=O)C(F)(F)F)C(F)(F)F [1-butylpyridinium bis[(trifluoromethyl)sulfonyl]imide] ; retrieve measured mass density.
-- reply 1406

---

details: 338.15 K; 101.33 kPa; Liquid; Vibrating tube method
property: mass density (kg/m3)
Give bare numbers, in kg/m3.

Would you please look over these solved cases?
{"columns": ["compound", "value-unit", "mass density"],
 "data": [
  ["CCCCCCCCCCCC[n+]1ccccc1.O=S(=O)([N-]S(=O)(=O)C(F)(F)F)C(F)(F)F [1-dodecylpyridinium bis(trifluoromethylsulfonyl)imide]", "kg/m3", 1216],
  ["CCCC[n+]1ccccc1.O=S(=O)([N-]S(=O)(=O)C(F)(F)F)C(F)(F)F [1-butylpyridinium bis[(trifluoromethyl)sulfonyl]imide]", "kg/m3", 1410.5],
  ["CCCCCCCCCC[n+]1ccccc1.O=S(=O)([N-]S(=O)(=O)C(F)(F)F)C(F)(F)F [1-decylpyridinium bis(trifluoromethylsulfonyl)imide]", "kg/m3", 1250.2]
]}

-- ask Param item = CCCCCCCC[n+]1ccccc1.O=S(=O)([N-]S(=O)(=O)C(F)(F)F)C(F)(F)F [1-octylpyridinium bis((trifluoromethyl)sulfonyl)amide] ; retrieve measured mass density.
-- reply 1292.6
